Listed next: entries and their corresponding Dissolved amount.
# run.description: Dissolution test of poorly-soluble substances using distilled water
# Assay type: physicochemical
# condition.description: water; elution time 60 min
measured.endpoint: Dissolved amount (µg/mL)

| compound | measured.endpoint | obs.value |
| --- | --- | --- |
| CC1(C)[C@@H](O[C@H]2O[C@H](C(=O)O)[C@@H](O)[C@H](O)[C@H]2O[C@@H]2O[C@H](C(=O)O)[C@@H](O)[C@H](O)[C@H]2O)CC[C@]2(C)[C@H]3C(=O)C=C4[C@@H]5C[C@@](C)(C(=O)O)CC[C@]5(C)CC[C@@]4(C)[C@]3(C)CC[C@@H]12 [Comparative Example 16, Ammonium Glycyrrhizinate] | Dissolved amount | 7374.5 |
| Cn1c(=O)c2[nH]cnc2n(C)c1=O [Comparative Example 15, Theophylline] | Dissolved amount | 8652.4 |
| CC(=O)O[C@]1(C(C)=O)CC[C@H]2[C@@H]3C=C(Cl)C4=CC(=O)CC[C@]4(C)[C@H]3CC[C@@]21C [Comparative Example 3-2, Chlormadinone acetate] | Dissolved amount | 1.0 |
| CC(C)(Sc1cc(C(C)(C)C)c(O)c(C(C)(C)C)c1)Sc1cc(C(C)(C)C)c(O)c(C(C)(C)C)c1 [Comparative Example 5-3, Probucol] | Dissolved amount | 7.6 |
| NC(N)=Nc1nc(CSCCC(N)=NS(N)(=O)=O)cs1 [Comparative Example 17, Famotidine] | Dissolved amount | 1565.8 |
| CC(=O)Oc1ccccc1C(=O)O [Comparative Example 1-3, Aspirin] | Dissolved amount | 3105.7 |
